This collection of values is drawn from the supplement of paper PMC6555819.

test system: LXRa homodimer (NR concentration 270 nM); assay: PBM binding z-score (relative to random genomic background probes); higher = stronger binding; sequences stand for … in GC…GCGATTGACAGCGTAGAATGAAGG
Provide the reported PBM binding z-score of each item.

Reference set (5 entries):
{"polymer.sequence": "TCTTGTAGATCAAAGGTTAAAAAAGCCGAAGCCT", "PBM binding z-score": 0.549}
{"polymer.sequence": "ATATGTAGGTTAAGGGTCATTCACGTTGGTTCGC", "PBM binding z-score": 2.96}
{"polymer.sequence": "ACTATTACTTGACTTAGGGCAACCGATACGACGC", "PBM binding z-score": 1.02}
{"polymer.sequence": "GCGACTGGGGCATCAACAGGTTACCATAACTTAA", "PBM binding z-score": -0.147}
{"polymer.sequence": "CCTAGCAGGCCAATCTGGGTCACTCCAGGCTTGA", "PBM binding z-score": -0.166}

Fill in: PBM binding z-score of "GCTGCTAGGTCAGGTTGGTGAGCTAACGGGTACG" is ___
-0.365
